test-target: PI3Kβ (Homo sapiens (Human), UniProt P42338)
Sequence (P42338 whole entry, canonical isoform): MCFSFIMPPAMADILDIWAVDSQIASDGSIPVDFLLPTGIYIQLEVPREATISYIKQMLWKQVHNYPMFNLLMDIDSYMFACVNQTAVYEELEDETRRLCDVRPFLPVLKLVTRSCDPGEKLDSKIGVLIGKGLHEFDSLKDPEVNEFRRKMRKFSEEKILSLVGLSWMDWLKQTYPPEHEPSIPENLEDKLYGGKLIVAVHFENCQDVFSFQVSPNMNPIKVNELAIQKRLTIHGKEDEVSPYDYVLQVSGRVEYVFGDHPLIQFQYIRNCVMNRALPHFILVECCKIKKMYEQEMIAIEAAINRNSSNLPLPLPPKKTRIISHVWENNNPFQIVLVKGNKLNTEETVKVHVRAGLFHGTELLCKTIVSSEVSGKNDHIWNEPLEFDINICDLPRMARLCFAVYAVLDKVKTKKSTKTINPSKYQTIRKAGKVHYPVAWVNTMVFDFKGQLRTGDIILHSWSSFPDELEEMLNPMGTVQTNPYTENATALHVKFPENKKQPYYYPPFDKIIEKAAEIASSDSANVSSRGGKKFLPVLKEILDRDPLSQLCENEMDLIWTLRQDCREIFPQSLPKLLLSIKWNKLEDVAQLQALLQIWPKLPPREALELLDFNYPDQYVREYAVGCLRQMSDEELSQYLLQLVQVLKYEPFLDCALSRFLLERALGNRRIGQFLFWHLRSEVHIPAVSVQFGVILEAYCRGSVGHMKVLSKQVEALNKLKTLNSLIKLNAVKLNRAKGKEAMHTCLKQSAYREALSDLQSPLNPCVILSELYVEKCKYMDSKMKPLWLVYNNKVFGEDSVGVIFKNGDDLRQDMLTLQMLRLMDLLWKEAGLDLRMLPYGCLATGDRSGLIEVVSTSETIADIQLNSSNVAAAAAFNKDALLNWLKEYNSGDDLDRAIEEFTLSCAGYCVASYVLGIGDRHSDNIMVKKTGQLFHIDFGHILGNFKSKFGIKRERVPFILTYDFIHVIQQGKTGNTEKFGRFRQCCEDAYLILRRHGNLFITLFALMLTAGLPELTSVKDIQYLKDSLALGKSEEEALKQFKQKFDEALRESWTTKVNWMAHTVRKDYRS
Sequence (P27986 whole entry partner, canonical isoform): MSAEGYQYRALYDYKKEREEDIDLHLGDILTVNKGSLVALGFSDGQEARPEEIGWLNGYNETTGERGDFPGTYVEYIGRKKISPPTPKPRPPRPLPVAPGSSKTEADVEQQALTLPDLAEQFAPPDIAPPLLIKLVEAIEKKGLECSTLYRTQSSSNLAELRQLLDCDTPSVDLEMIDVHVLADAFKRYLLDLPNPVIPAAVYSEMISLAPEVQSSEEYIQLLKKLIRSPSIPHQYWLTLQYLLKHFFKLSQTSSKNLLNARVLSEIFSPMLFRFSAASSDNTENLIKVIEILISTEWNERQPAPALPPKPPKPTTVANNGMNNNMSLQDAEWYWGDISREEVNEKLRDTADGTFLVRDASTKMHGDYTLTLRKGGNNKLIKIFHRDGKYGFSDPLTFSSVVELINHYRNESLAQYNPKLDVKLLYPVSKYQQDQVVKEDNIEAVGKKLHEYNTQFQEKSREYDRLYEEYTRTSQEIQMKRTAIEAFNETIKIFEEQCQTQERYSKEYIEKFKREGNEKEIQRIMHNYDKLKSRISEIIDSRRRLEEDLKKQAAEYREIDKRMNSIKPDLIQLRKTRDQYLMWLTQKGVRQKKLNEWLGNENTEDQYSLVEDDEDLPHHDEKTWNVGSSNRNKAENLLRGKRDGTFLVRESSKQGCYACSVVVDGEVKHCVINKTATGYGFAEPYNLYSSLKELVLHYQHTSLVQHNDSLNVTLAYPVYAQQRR
assay-details: PI3K isoform TR-FRET enzymatic assay (PI3Kβ)
particulars: 2× Km ATP, 30 minutes at 25° C.
# reported IC50; entries follow
Write the answer as a number in nM, unit excluded.

- molecule: "Clc1cccc2c(-n3c(-c4ccccn4)nc4c(-c5nnc[nH]5)cc(N5CCOCC5)cc43)ccnc12 [Example 115]"
  test-target: "PI3Kβ (Homo sapiens (Human), UniProt P42338)"
  u: "nM"
  numeric-readout: 14
- molecule: "Fc1ccc2c(-n3cnc4c(-c5nnc[nH]5)cc(N5CCOCC5)cc43)ccnc2c1 [Example 53]"
  test-target: "PI3Kβ (Homo sapiens (Human), UniProt P42338)"
  u: "nM"
  numeric-readout: 15

We now examine a further molecule.
IC50 in this record for CCc1nc2c(-c3nnc[nH]3)cc(N3CCOCC3)cc2n1-c1ccnc2c(Cl)cccc12 [Example 105] : 10
